Hey, just so you know, these numbers are from ChEMBL document CHEMBL1201862.

Tested on: MDA-MB-231
Assay Name: NCI tumour cell line growth inhibition, 48 h
The source made the active and inactive calls. Cut-off read from the data, not from the text of the source: active = GI50 up to about 1.1 µM and inactive = higher.
Endpoint: GI50

- Compound: "COc1ccc(OC)c(C(=O)c2cccc(C(=O)c3cc(OC)ccc3OC)n2)c1"
  Endpoint: "GI50"
  Assay Result: "58.7 µM (inactive)"
- Compound: "Cn1c(Nc2ccccc2)c(/C=N\\c2ccccc2)c(=O)n(C)c1=O"
  Endpoint: "GI50"
  Assay Result: "61.4 µM (inactive)"
- Compound: "O=C1C(Cl)=C(N[C@@H](Cc2ccccc2)C(=O)OCc2ccccc2)C(=O)c2c(O)ccc(O)c21"
  Endpoint: "GI50"
  Assay Result: "2.55 µM (inactive)"
- Compound: "CC1(C)CCN2C(=O)C34CCCC3CC21S4 (stereo not given)"
  Endpoint: "GI50"
  Assay Result: "> 100 µM (inactive)"
- Compound: "O=[N+]([O-])c1cc2c([N+](=O)[O-])cccc2o1"
  Endpoint: "GI50"
  Assay Result: "12.3 µM (inactive)"
